These entries and their values trace back to ChEMBL document CHEMBL5338749.

biological target: Bromodomain-containing protein 3 (Homo sapiens); assay: Binding affinity to biotinylated BRD3-ET domain (unknown origin) expressed in Escherichia coli Rosetta (DE3) pLysS assessed as dissociation constant at 4 degreeC by SPR analysis
Sequence (Q15059 whole entry, the tested form may be a part): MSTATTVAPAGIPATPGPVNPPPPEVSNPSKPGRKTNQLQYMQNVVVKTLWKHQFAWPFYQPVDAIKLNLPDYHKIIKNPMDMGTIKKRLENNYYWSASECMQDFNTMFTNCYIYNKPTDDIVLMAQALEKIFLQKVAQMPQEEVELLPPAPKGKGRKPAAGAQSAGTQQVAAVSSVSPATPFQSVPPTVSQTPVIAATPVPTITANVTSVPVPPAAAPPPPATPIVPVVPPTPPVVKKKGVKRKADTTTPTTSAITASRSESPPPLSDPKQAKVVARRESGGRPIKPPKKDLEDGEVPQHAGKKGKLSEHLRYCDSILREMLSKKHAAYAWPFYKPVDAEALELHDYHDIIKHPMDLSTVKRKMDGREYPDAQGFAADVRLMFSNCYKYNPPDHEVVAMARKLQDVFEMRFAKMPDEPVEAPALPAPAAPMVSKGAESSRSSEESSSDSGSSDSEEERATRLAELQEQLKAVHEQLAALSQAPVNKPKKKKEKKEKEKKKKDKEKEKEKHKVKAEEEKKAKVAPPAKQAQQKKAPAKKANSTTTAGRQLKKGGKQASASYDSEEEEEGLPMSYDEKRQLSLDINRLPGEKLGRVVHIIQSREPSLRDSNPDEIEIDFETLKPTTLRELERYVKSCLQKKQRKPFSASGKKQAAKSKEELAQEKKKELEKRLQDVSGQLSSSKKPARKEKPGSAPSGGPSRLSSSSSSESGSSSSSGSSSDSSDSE
observable: Kd (µM)

Solved cases (5 shown):
# compound, Kd / µM
measured = [
    ("O=C(NC1CCCc2c1[nH]c1ccc(F)cc21)C1CCNC1 (stereo unspecified)", 31),
    ("Fc1ccc2[nH]c3c(c2c1)CCCC3NCC1CCNCC1 (stereo unspecified)", 17),
    ("CC(=O)NC1CCCc2c1[nH]c1ccc(F)cc21 (stereo unspecified)", 260),
    ("O=C(NC1CCCc2c1[nH]c1ccc(F)cc21)[C@@H]1C=CCN1 (stereo partly specified)", 47),
    ("Fc1ccc2[nH]c3c(c2c1)CCCC3NCCC1CCCNC1 (stereo unspecified)", 7.8),
]

[1] CC(C)(C)OC(=O)N1CCC(CNC2CCCc3c2[nH]c2ccc(F)cc32)C1 (stereo unspecified)
[2] CC(C)C[C@H](N)CC(=O)NC1CCCc2c1[nH]c1ccc(F)cc21 (stereo partly specified)
IN: Lab note: check whether 1 or 2 shows the higher recorded Kd. Bench note: the answer is the label of the chosen record.
OUT: 1

[a] CC(C)(C)OC(=O)N1CCC(CNC2CCCc3c2[nH]c2ccc(F)cc32)CC1 (stereo unspecified)
[b] OC1CCCc2c1[nH]c1ccccc21 (stereo unspecified)
IN: For a and b , which recorded Kd is lower? // respond with label for picked entry
OUT: a

[I] Fc1ccc2[nH]c3c(c2c1)CCCC3NCC1CCNC1 (stereo unspecified)
[II] O=C(CC1CCCNC1)NC1CCCc2c1[nH]c1ccc(F)cc21 (stereo unspecified)
IN: Please indicate which has the smaller reported Kd: I , or II . Kindly give the label for the entry you pick.
OUT: I
(I: 11 µM, II: 25 µM)
